B1: ZNF649 (parent)
chain: LVAHQRYHTGKTPFVCPECGQPCS

variants of: B1; test: protein stability index of a GFP-peptide fusion (GPS, HEK-293T) (PSI 1-6); higher = more stable; settings: c terminus: a fixed tail appended;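 also: lentivirally expressed fusions sorted by FACS into six bins by GFP to DsRed ratio, PSI derived from sequencing read proportions per bin multiplied by bin number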
# reported protein stability index; entries follow

{"columns": ["variant-designation", "protein stability index"],
 "data": [
  ["Q5I", 3.78],
  ["P22Y", 3.84],
  ["L1E", 4.06],
  ["Y7D", 4.17],
  ["A3Y", 2.38],
  ["P22G", 3.35],
  ["V15M", 3.3],
  ["V2A", 3.28],
  ["T12G", 3.04],
  ["V2Y", 2.81],
  ["K11G", 3.45],
  ["E18C", 2.82]
]}
